# System: Calu-3
# experiment.description: cell viability relative to DMSO; higher = less toxic
# experimental.conditions: 72 h; 1 nM
Counter-ions that a name gives are not always drawn.
outcome.measure: cell viability (%)
Write the number in % without appending the unit.

# annotated cases, reported cell viability shown
O=C(O)c1ccc(OCCn2ccnc2)cc1 [dazoxiben] ... 101
COc1ccc(-c2nc(-c3ccc(-c4cccc(Cl)c4)o3)[nH]c2-c2ccc(OC)cc2)cc1 [neurodazine] ... 91.4
COc1cc2ncnc(Nc3cccc(Cl)c3)c2cc1OC [tyrphostin-AG-1478] ... 107
CC(C)[N+](C)(CCC(C(N)=O)(c1ccccc1)c1ccccc1)C(C)C [isopropamide-iodide] ... 97.2
C[C@@H]1CC[C@@]2(OC1)O[C@H]1C[C@H]3[C@@H]4CC=C5C[C@@H](O[C@@H]6O[C@H](CO)[C@@H](O[C@@H]7O[C@@H](C)[C@H](O)[C@@H](O)[C@H]7O)[C@H](O)[C@H]6O[C@@H]6O[C@@H](C)[C@H](O)[C@@H](O)[C@H]6O)CC[C@]5(C)[C@H]4CC[C@]3(C)[C@H]1[C@@H]2C [dioscin] ... 96.7

Inquiry: Which cell viability value belongs to CN(C)c1ccc(-c2nc3c(N4CCN(CC(=O)Nc5nccs5)CC4)c(Cl)cnc3[nH]2)cc1 ?
Reply text: 102

Inquiry: Now this one: NCCCNCCCCNCCCN [spermine]
Reply text: 99.2

Inquiry: Now this one: NC(=O)N1C(=O)/C(=C(\O)c2cccs2)c2cc(Cl)ccc21 [tenidap]
Reply text: 109

Inquiry: Now this one: CC[C@H](CO)Nc1nc(Nc2cccc(-c3ccccn3)c2)c2ncn(C(C)C)c2n1 [DRF053-(R)]
Reply text: 94.7

Inquiry: Now this one: O=C1OC(c2ccc(O)cc2)(c2ccc(O)cc2)c2ccccc21 [phenolphthalein]
Reply text: 96.1

Inquiry: Now this one: CNCC(=O)O [sarcosine]
Reply text: 92.9

Inquiry: Now this one: CC(=O)CCCCn1c(=O)c2c(ncn2C)n(C)c1=O [pentoxifylline]
Reply text: 99.7

Inquiry: Now this one: c1ccc(CNc2nc(NCc3ccccc3)c3ccccc3n2)cc1 [DBeQ]
Reply text: 105

Inquiry: Now this one: COc1ccc2[nH]c(I)c(CCNC(C)=O)c2c1 [2-iodomelatonin]
Reply text: 99.5

Inquiry: Now this one: Nc1nc(NC2CC2)c2ncn([C@H]3C=C[C@@H](CO)C3)c2n1 [ABACAVIR SULFATE]
Reply text: 89.4

Inquiry: Now this one: OCCNCCCOc1cccc(Cl)c1Cl [2,3-DCPE]
Reply text: 99.1

Inquiry: Now this one: N#CC1(c2ccc(NC(=O)c3cccnc3NCc3ccncc3)cc2)CCCC1 [apatinib]
Reply text: 92.9

Inquiry: Now this one: CCCCc1oc2ccc(NS(C)(=O)=O)cc2c1C(=O)c1ccc(OCCCN(CCCC)CCCC)cc1 [dronedarone]
Reply text: 102

---

Attribute: drug sensitivity score
# Tested on: Caco-2
# experiment.description: drug sensitivity score (DSS) for viability; higher = more toxic; extreme values may be limits of the assay
# experimental.conditions: 72 h
// keep it numeric: no unit symbol after the value

O=C(O[C@@H]1Cc2c(O)cc(O)cc2O[C@@H]1c1cc(O)c(O)c(O)c1)c1cc(O)c(O)c(O)c1 [epigallocatechin-gallate-(-)] ... 0
C[C@@H]1CC[C@@]2(OC1)O[C@H]1C[C@H]3[C@@H]4CC=C5C[C@@H](O[C@@H]6O[C@H](CO)[C@@H](O[C@@H]7O[C@@H](C)[C@H](O)[C@@H](O)[C@H]7O)[C@H](O)[C@H]6O[C@@H]6O[C@@H](C)[C@H](O)[C@@H](O)[C@H]6O)CC[C@]5(C)[C@H]4CC[C@]3(C)[C@H]1[C@@H]2C ... 9.1
NC1(Cc2ccc(Cl)cc2)CCN(c2ncnc3[nH]ccc23)CC1 ... 0.7
O=C(NCC(=O)N1CCCCC1)Nc1ccc2nnsc2c1 ... 0

Inquiry: Which drug sensitivity score value belongs to CN(C)c1ccc(-c2nc3c(N4CCN(CC(=O)Nc5nccs5)CC4)c(Cl)cnc3[nH]2)cc1 ?
Reply text: 0

Inquiry: Now this one: CCCC(CCC)C(=O)O[C@H]1C[C@H]2CC[C@@H](C1)[N+]2(C)C
Reply text: 0

Inquiry: Now this one: CC(NCCc1ccc(O)cc1)C(O)c1ccc(O)cc1 (centres undefined)
Reply text: 0

---

Attribute: cell viability
# Tested on: HepG2
# experiment.description: cell viability relative to DMSO; higher = less toxic
# experimental.conditions: 72 h; 1 nM
Please state the number and follow it with the unit.

# annotated cases, reported cell viability shown
C[C@@H]1CC[C@@]2(OC1)O[C@H]1C[C@H]3[C@@H]4CC=C5C[C@@H](O[C@@H]6O[C@H](CO)[C@@H](O[C@@H]7O[C@@H](C)[C@H](O)[C@@H](O)[C@H]7O)[C@H](O)[C@H]6O[C@@H]6O[C@@H](C)[C@H](O)[C@@H](O)[C@H]6O)CC[C@]5(C)[C@H]4CC[C@]3(C)[C@H]1[C@@H]2C [dioscin] ... 96.8%
O=C(O)C[C@H]1CC[C@H](c2ccc(NC(=O)c3nnc(Nc4ccc(F)c(F)c4)o3)cc2)CC1 [AZD3988] ... 110%
COC(=O)Nc1ccc(-c2nc(N3CCOCC3)c3cnn(C4CCN(Cc5cccnc5)CC4)c3n2)cc1 [WYE-687] ... 97.5%
O=C(O)c1ccc(OCCn2ccnc2)cc1 [dazoxiben] ... 104%
CCCCNc1ncc2c(-c3ccc(CN4CCN(C)CC4)cc3)cn([C@H]3CC[C@H](O)CC3)c2n1 [UNC2025] ... 88.6%

Inquiry: Which cell viability value belongs to C[C@@H](O)[C@H](N)C(=O)N1CCC[C@H]1C(=O)N1CCC[C@H]1C(=O)N[C@H](C(N)=O)[C@@H](C)O [rapastinel] ?
Reply text: 100%

Inquiry: Now this one: Nc1nccc(Oc2ccc(NC(=O)c3cn(COP(=O)(O)O)cc(-c4ccc(F)cc4)c3=O)cc2F)c1Cl
Reply text: 104%

---

# Test system: Vero E6
# experiment.description: cell viability relative to DMSO; higher = less toxic
# experimental.conditions: 72 h; 100 nM
Attribute: cell viability
Write the number in % without appending the unit.

C/C(=N\NC(=O)C(NC(=O)c1ccccc1)c1n[nH]c(=O)c2ccccc12)c1cccc(Br)c1 (stereo not drawn) ... 97.4
CC(C)Oc1ccc(-c2nc(-c3cccc4c3CC[C@H]4NCCC(=O)O)no2)cc1C#N ... 90.2
C[C@@H]1CC[C@@]2(OC1)O[C@H]1C[C@H]3[C@@H]4CC=C5C[C@@H](O[C@@H]6O[C@H](CO)[C@@H](O[C@@H]7O[C@@H](C)[C@H](O)[C@@H](O)[C@H]7O)[C@H](O)[C@H]6O[C@@H]6O[C@@H](C)[C@H](O)[C@@H](O)[C@H]6O)CC[C@]5(C)[C@H]4CC[C@]3(C)[C@H]1[C@@H]2C ... 98.4
O=C(Nc1ccc2[nH]ccc2c1)c1ccccc1 ... 99.6
CCCCc1nc(Cl)c(C(=O)O)n1Cc1ccc(-c2ccccc2-c2nn[nH]n2)cc1 ... 98.3

Inquiry: Which cell viability value belongs to O=C(Nc1cccc(Cl)c1)c1ccccn1 ?
Reply text: 107

Inquiry: Now this one: CCCCCCOC(=O)NC(=N)c1ccc(NCc2nc3cc(C(=O)N(CCC(=O)OCC)c4ccccn4)ccc3n2C)cc1 [dabigatran-etexilate]
Reply text: 99.4

Inquiry: Now this one: O=C(O)[C@H]1CN(CCCP(=O)(O)O)CCN1
Reply text: 99.8

Inquiry: Now this one: CCCCc1ncc(/C=C(\Cc2cccs2)C(=O)O)n1Cc1ccc(C(=O)O)cc1
Reply text: 100

Inquiry: Now this one: O=C(O)c1ccccc1S
Reply text: 96.2

Inquiry: Now this one: C[C@]1(O)C[C@@H](c2nc(-c3ccc4ccc(-c5ccccc5)nc4c3)c3c(N)nccn32)C1
Reply text: 104

Inquiry: Now this one: NC(=O)c1noc([C@H](CCCC2CCCCC2)CC(=O)NO)n1
Reply text: 93.1

Inquiry: Now this one: CNC(=O)Oc1ccccc1OC(C)C
Reply text: 102

Inquiry: Now this one: O=C(O)C[C@H](O)C[C@H](O)/C=C/c1c(C2CC2)nc2ccccc2c1-c1ccc(F)cc1
Reply text: 88.7

Inquiry: Now this one: CCN(CC)CCOC(=O)c1ccc(N)cc1
Reply text: 99.3

Inquiry: Now this one: COc1cc(N2CCC(N)CC2)ccc1Nc1ncc(Cl)c(-c2c[nH]c3ccccc23)n1
Reply text: 102

Inquiry: Now this one: OCCNCCCOc1cccc(Cl)c1Cl
Reply text: 103

Inquiry: Now this one: O=S(=O)(NCCNC/C=C/c1ccc(Br)cc1)c1cccc2cnccc12
Reply text: 100
